The measurements presented in this section are drawn from patent US11530244B2.

Molecular target: PCSK9 (Homo sapiens (Human), UniProt Q8NBP7)
Sequence (Q8NBP7 153-692): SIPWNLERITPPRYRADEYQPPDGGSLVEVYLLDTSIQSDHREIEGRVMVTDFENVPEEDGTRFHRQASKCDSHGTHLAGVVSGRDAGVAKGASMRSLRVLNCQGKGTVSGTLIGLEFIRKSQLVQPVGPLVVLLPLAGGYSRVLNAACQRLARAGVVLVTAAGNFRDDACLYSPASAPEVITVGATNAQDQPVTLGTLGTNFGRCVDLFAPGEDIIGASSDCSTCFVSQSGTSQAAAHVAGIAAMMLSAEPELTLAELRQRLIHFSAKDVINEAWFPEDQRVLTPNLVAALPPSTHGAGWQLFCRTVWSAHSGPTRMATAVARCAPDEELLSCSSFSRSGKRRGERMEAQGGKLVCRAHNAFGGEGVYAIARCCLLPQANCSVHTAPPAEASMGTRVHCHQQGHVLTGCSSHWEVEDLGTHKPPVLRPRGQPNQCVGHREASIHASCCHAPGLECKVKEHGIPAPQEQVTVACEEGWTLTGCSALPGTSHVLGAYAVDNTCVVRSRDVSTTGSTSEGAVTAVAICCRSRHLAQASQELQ
Assay: PCSK9 Alexa FRET Standard assay (displacement of AlexaFluor647 tagged cyclic peptide Reagent A)
Format: binding
Details: PCSK9 Alexa FRET Standard assay, 0.5 nM PCSK9, 20 nM AF cyclic peptide Reagent A; read-out: IC50
Starred links: 1 amine or outer side, 2 acyl side, 3 side chain; linkers in the order of their positions; H or OH if unused. Positions of bridges follow the written chain, without caps; N, C: chain ends. Non-standard residues stand in square brackets, D forms with d. Residues, ends and D or L forms follow the SMILES beside them. NHCH2C6H4(p)CH2CH2NH = c1cc(CN[*:1])ccc1CCN[*:2]; Trp(5-F) = N[C@@H](Cc1c[nH]c2ccc(F)cc12)C(=O)O; X55 = O=C(CCCCCC(=O)[*:1])NCc1ccc(CCN[*:2])cc1; Phe(4-CH2NH2) = NCc1ccc(C[C@H](N)C(=O)O)cc1; Heptanedioyl = O=C(CCCCCC(=O)[*:2])[*:1]; Pro(cis-4-F) = O=C(O)[C@@H]1C[C@H](F)CN1; αMeP = C[C@@]1(C(=O)O)CCCN1
PROPERTY NAME: IC50

Worked cases, IC50 given:
# COMPOUND, PROPERTY NAME, RESULT
records = [
    ("COc1ccc(C[C@@H]2NC(=O)[C@H](Cc3cnc[nH]3)NC(=O)[C@H](CC(=O)O)NC(=O)[C@H](Cc3c[nH]c4ccc(F)cc34)NC(=O)[C@H](Cc3c[nH]c4ccc(F)cc34)NC(=O)[C@@H](C)NC(=O)CCCCCC(=O)NCc3ccc(cc3)C[C@@H](C(N)=O)NC(=O)[C@]3(C)CCCN3C2=O)cc1 [Compound 440] ([dA][Trp(5-F)][Trp(5-F)]DHY(Me)[αMeP][Phe(4-CH2NH2)]-NH2; linker N-8 via Heptanedioyl)", "IC50", "100 to 1000 nM"),
    ("COc1ccc(C[C@@H]2NC(=O)[C@H](Cc3cnc[nH]3)NC(=O)[C@H](CC(=O)O)NC(=O)[C@H](Cc3c[nH]c4ccc(F)cc34)NC(=O)[C@H](Cc3c[nH]c4ccc(F)cc34)NC(=O)[C@H](C)NC(=O)CCCCCC(=O)NCc3ccc(cc3)CCNC(=O)[C@]3(C)CCCN3C2=O)cc1 [Compound 470] (A[Trp(5-F)][Trp(5-F)]DHY(Me)[αMeP]; linker N-C via X55)", "IC50", "0.11 to 100 nM"),
]

Query (compound): COc1ccc(C[C@@H]2NC(=O)[C@H]([C@@H](C)O)NC(=O)[C@@H]3C[C@H](F)CN3C(=O)[C@H](Cc3c[nH]c4ccc(F)cc34)NC(=O)[C@H](Cc3c[nH]c4ccc(F)cc34)NC(=O)[C@@H](C)NC(=O)[C@H](CCCCN)NC(=O)[C@@H](NC(C)=O)CC(=O)NCc3ccc(cc3)CCNC(=O)[C@]3(C)CCCN3C2=O)cc1 [Compound 095] (Ac-DK[dA][Trp(5-F)][Trp(5-F)][Pro(cis-4-F)]TY(Me)[αMeP]; linker 1-C via NHCH2C6H4(p)CH2CH2NH) ; field requested: IC50
100 to 1000 nM
